src = PubChem BioAssay AID2060484

test system: SUM149PT spheroids with HUVEC/MSC, viability; test: Anticancer human tumor SUM149PT cell line growth inhibition [GQUAD]; details: curve of first compound; second compound 0.316 µM;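 further: spheroids exposed to drugs for seven days before readout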
valueType: log10(IC50) (log10 of the value in µM)

- molecule: "CCCS(=O)(=O)Nc1ccc(F)c(C(=O)c2c[nH]c3ncc(-c4ccc(Cl)cc4)cc23)c1F + CN(C)c1ccc(Nc2c3ccc(NC(=O)CCN4CCCC4)cc3nc3cc(NC(=O)CCN4CCCC4)ccc23)cc1"
  valueType: "log10(IC50)"
  number: 0.89
- molecule: "Cn1ncnc1[C@H]1c2n[nH]c(=O)c3cc(F)cc(c23)N[C@@H]1c1ccc(F)cc1 + Cc1cnc(CNC(=O)c2c(=O)c3ccc(N4CCCN(C)CC4)nc3n3c2sc2ccccc23)cn1"
  valueType: "log10(IC50)"
  number: -2.24
- molecule: "COc1cccc2c1C(=O)c1c(O)c3c(c(O)c1C2=O)CC(O)(C(=O)CO)CC3OC1CC(N)C(O)C(C)O1 (stereo not given) + Cc1cnc(CNC(=O)c2c(=O)c3ccc(N4CCCN(C)CC4)nc3n3c2sc2ccccc23)cn1"
  valueType: "log10(IC50)"
  number: -1.12
- molecule: "CC[C@@]1(O)C(=O)OCc2c1cc1n(c2=O)Cc2cc3c(CN(C)C)c(O)ccc3nc2-1 + Cc1cnc(CNC(=O)c2c(=O)c3ccc(N4CCCN(C)CC4)nc3n3c2sc2ccccc23)cn1"
  valueType: "log10(IC50)"
  number: -1.83
- molecule: "CCCS(=O)(=O)Nc1ccc(F)c(C(=O)c2c[nH]c3ncc(-c4ccc(Cl)cc4)cc23)c1F + Cc1cnc(CNC(=O)c2c(=O)c3ccc(N4CCCN(C)CC4)nc3n3c2sc2ccccc23)cn1"
  valueType: "log10(IC50)"
  number: 0.16
- molecule: "COc1cccc2c1C(=O)c1c(O)c3c(c(O)c1C2=O)CC(O)(C(=O)CO)CC3OC1CC(N)C(O)C(C)O1 (stereo not given) + CN(C)c1ccc(Nc2c3ccc(NC(=O)CCN4CCCC4)cc3nc3cc(NC(=O)CCN4CCCC4)ccc23)cc1"
  valueType: "log10(IC50)"
  number: -0.56
- molecule: "CCc1c2c(nc3ccc(O)cc13)-c1cc3c(c(=O)n1C2)COC(=O)[C@]3(O)CC + Cc1[nH]c2ccc(F)cc2c1-c1nc2c3cccnc3c3ncccc3c2[nH]1"
  valueType: "log10(IC50)"
  number: -2.73
- molecule: "COc1cccc2c1C(=O)c1c(O)c3c(c(O)c1C2=O)CC(O)(C(=O)CO)CC3OC1CC(N)C(O)C(C)O1 (stereo not given) + Cc1[nH]c2ccc(F)cc2c1-c1nc2c3cccnc3c3ncccc3c2[nH]1"
  valueType: "log10(IC50)"
  number: -0.72
- molecule: "CC1COCCN1c1cc(C2(S(C)(=N)=O)CC2)nc(-c2ccnc3[nH]ccc23)n1 (stereo not given) + CN(C)c1ccc(Nc2c3ccc(NC(=O)CCN4CCCC4)cc3nc3cc(NC(=O)CCN4CCCC4)ccc23)cc1"
  valueType: "log10(IC50)"
  number: 0.36
- molecule: "C=CCn1c(=O)c2cnc(Nc3ccc(N4CCN(C)CC4)cc3)nc2n1-c1cccc(C(C)(C)O)n1 + Cc1[nH]c2ccc(F)cc2c1-c1nc2c3cccnc3c3ncccc3c2[nH]1"
  valueType: "log10(IC50)"
  number: -0.72

---

system: SUM149PT spheroids with HUVEC/MSC, viability; experiment: Anticancer human tumor SUM149PT cell line growth inhibition [GQUAD]; details: second compound 0.0316 µM; first compound 10 µM; stronger effect = lower value;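 further: spheroids exposed to drugs for seven days before readout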;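 on viability, T/C: percent viability relative to DMSO vehicle control taken as 100%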

- compound: "COc1ccc([C@@H](O)c2cc(-c3ncnc4cc(N5CCOCC5)ccc34)c(F)cc2Cl)nn1 + Cc1cnc(CNC(=O)c2c(=O)c3ccc(N4CCCN(C)CC4)nc3n3c2sc2ccccc23)cn1"
  targetDesc: "SUM149PT spheroids with HUVEC/MSC, viability"
  viability, T/C [%]: 18.5
- compound: "COc1cccc2c1C(=O)c1c(O)c3c(c(O)c1C2=O)CC(O)(C(=O)CO)CC3OC1CC(N)C(O)C(C)O1 (stereo not given) + CN(C)c1ccc(Nc2c3ccc(NC(=O)CCN4CCCC4)cc3nc3cc(NC(=O)CCN4CCCC4)ccc23)cc1"
  targetDesc: "SUM149PT spheroids with HUVEC/MSC, viability"
  viability, T/C [%]: 1.9
- compound: "CC1COCCN1c1cc(-c2ccnn2C)c2ccnc(-c3ccn[nH]3)c2n1 (stereo not given) + Cc1cnc(CNC(=O)c2c(=O)c3ccc(N4CCCN(C)CC4)nc3n3c2sc2ccccc23)cn1"
  targetDesc: "SUM149PT spheroids with HUVEC/MSC, viability"
  viability, T/C [%]: 19.2
- compound: "COc1cc(C2c3cc4c(cc3C(OC3OC5COC(C)OC5C(O)C3O)C3COC(=O)C23)OCO4)cc(OC)c1O (stereo not given) + Cc1cnc(CNC(=O)c2c(=O)c3ccc(N4CCCN(C)CC4)nc3n3c2sc2ccccc23)cn1"
  targetDesc: "SUM149PT spheroids with HUVEC/MSC, viability"
  viability, T/C [%]: 13.3
- compound: "Cc1cccc(N(C)C(=O)C2C(O)CCN2c2nc(C)cc(C(F)(F)F)c2C#N)c1 (stereo not given) + Cc1cnc(CNC(=O)c2c(=O)c3ccc(N4CCCN(C)CC4)nc3n3c2sc2ccccc23)cn1"
  targetDesc: "SUM149PT spheroids with HUVEC/MSC, viability"
  viability, T/C [%]: 95.4

---

Measured viability, T/C, listed per entry for reference.
system: SUM149PT spheroids with HUVEC/MSC, viability; experiment: Anticancer human tumor SUM149PT cell line growth inhibition [GQUAD]; details: second compound 10 µM; first compound 10 µM; stronger effect = lower value;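 further: spheroids exposed to drugs for seven days before readout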;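 on viability, T/C: percent viability relative to DMSO vehicle control taken as 100%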

- compound: "COc1cccc2c1C(=O)c1c(O)c3c(c(O)c1C2=O)CC(O)(C(=O)CO)CC3OC1CC(N)C(O)C(C)O1 (stereo unspecified) + CN(C)c1ccc(Nc2c3ccc(NC(=O)CCN4CCCC4)cc3nc3cc(NC(=O)CCN4CCCC4)ccc23)cc1"
  viability, T/C / %: 2.22
- compound: "C=CC(=O)N1CCN(c2nc(=O)n(-c3c(C)ccnc3C(C)C)c3nc(-c4c(O)cccc4F)c(F)cc23)C(C)C1 (stereo unspecified) + Cc1cnc(CNC(=O)c2c(=O)c3ccc(N4CCCN(C)CC4)nc3n3c2sc2ccccc23)cn1"
  viability, T/C / %: 0.29
- compound: "CC(C)n1c(=O)n(C)c2cnc3cc(F)c(-c4ccc(OCCCN5CCCCC5)nc4)cc3c21 + Cc1[nH]c2ccc(F)cc2c1-c1nc2c3cccnc3c3ncccc3c2[nH]1"
  viability, T/C / %: 62.5
- compound: "Nc1ccn(C2OC(CO)C(O)C2(F)F)c(=O)n1 (stereo unspecified) + Cc1cnc(CNC(=O)c2c(=O)c3ccc(N4CCCN(C)CC4)nc3n3c2sc2ccccc23)cn1"
  viability, T/C / %: 2.03
- compound: "CC1COCCN1c1cc(-c2ccnn2C)c2ccnc(-c3ccn[nH]3)c2n1 (stereo unspecified) + Cc1[nH]c2ccc(F)cc2c1-c1nc2c3cccnc3c3ncccc3c2[nH]1"
  viability, T/C / %: 24.1
- compound: "Cc1cccc(N(C)C(=O)C2C(O)CCN2c2nc(C)cc(C(F)(F)F)c2C#N)c1 (stereo unspecified) + CN(C)c1ccc(Nc2c3ccc(NC(=O)CCN4CCCC4)cc3nc3cc(NC(=O)CCN4CCCC4)ccc23)cc1"
  viability, T/C / %: 37.9
- compound: "CC(C)(O)C1CCC(Nc2ccc3ncc(-c4cccc(C(F)(F)F)c4)n3n2)CC1 (stereo unspecified) + Cc1[nH]c2ccc(F)cc2c1-c1nc2c3cccnc3c3ncccc3c2[nH]1"
  viability, T/C / %: 43.1
- compound: "CC1COCCN1c1cc(-c2ccnn2C)c2ccnc(-c3ccn[nH]3)c2n1 (stereo unspecified) + Cc1cnc(CNC(=O)c2c(=O)c3ccc(N4CCCN(C)CC4)nc3n3c2sc2ccccc23)cn1"
  viability, T/C / %: 0.18
- compound: "COc1ccc([C@@H](O)c2cc(-c3ncnc4cc(N5CCOCC5)ccc34)c(F)cc2Cl)nn1 + Cc1cnc(CNC(=O)c2c(=O)c3ccc(N4CCCN(C)CC4)nc3n3c2sc2ccccc23)cn1"
  viability, T/C / %: 1.3
- compound: "COc1ncnc(C2CC2)c1-c1ncc2cnn(Cc3ccc(-c4nc(C(F)(F)F)cn4C(C)C)cc3)c2n1 + Cc1[nH]c2ccc(F)cc2c1-c1nc2c3cccnc3c3ncccc3c2[nH]1"
  viability, T/C / %: 92.5
- compound: "Nc1ccn(C2OC(CO)C(O)C2(F)F)c(=O)n1 (stereo unspecified) + CN(C)c1ccc(Nc2c3ccc(NC(=O)CCN4CCCC4)cc3nc3cc(NC(=O)CCN4CCCC4)ccc23)cc1"
  viability, T/C / %: 13.4

---

system: SUM149PT spheroids with HUVEC/MSC, viability; assay: Anticancer human tumor SUM149PT cell line growth inhibition [GQUAD]; details: second compound 0.0316 µM; first compound 3.16 µM; stronger effect = lower value;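 further: spheroids exposed to drugs for seven days before readout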;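 on viability, T/C: percent viability relative to DMSO vehicle control taken as 100%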
Classify: 1.0 when viability, T/C is strictly less than 60%; 0.0 when viability, T/C is not.

- compound: "CCCS(=O)(=O)Nc1ccc(F)c(C(=O)c2c[nH]c3ncc(-c4ccc(Cl)cc4)cc23)c1F + Cc1cnc(CNC(=O)c2c(=O)c3ccc(N4CCCN(C)CC4)nc3n3c2sc2ccccc23)cn1"
  labelClass: 0.0
- compound: "C#Cc1c(F)ccc2cc(O)cc(-c3ncc4c(N5CC6CCC(C5)N6)nc(OCC56CCCN5CC(F)C6)nc4c3F)c12 (stereo not given) + CN(C)c1ccc(Nc2c3ccc(NC(=O)CCN4CCCC4)cc3nc3cc(NC(=O)CCN4CCCC4)ccc23)cc1"
  labelClass: 1.0
- compound: "COc1ncnc(C2CC2)c1-c1ncc2cnn(Cc3ccc(-c4nc(C(F)(F)F)cn4C(C)C)cc3)c2n1 + CN(C)c1ccc(Nc2c3ccc(NC(=O)CCN4CCCC4)cc3nc3cc(NC(=O)CCN4CCCC4)ccc23)cc1"
  labelClass: 0.0
- compound: "O=c1[nH]cc(F)c(=O)[nH]1 + Cc1[nH]c2ccc(F)cc2c1-c1nc2c3cccnc3c3ncccc3c2[nH]1"
  labelClass: 1.0
- compound: "CC1COCCN1c1cc(-c2ccnn2C)c2ccnc(-c3ccn[nH]3)c2n1 (stereo not given) + Cc1cnc(CNC(=O)c2c(=O)c3ccc(N4CCCN(C)CC4)nc3n3c2sc2ccccc23)cn1"
  labelClass: 1.0
